Listed below: IC50 values for each entry.
Biological target: DRB1*1302 (Homo sapiens, UniProt P01903+P01911, A100E/A169T/K41T/L162R/M171V/P40S/Q125H/Q178H/Q39Y/Q99D/R42S/S66N/T262R/V115G/W38E/Y61H)
Sequence (P01903 26-254 limits assumed, other chains not shown): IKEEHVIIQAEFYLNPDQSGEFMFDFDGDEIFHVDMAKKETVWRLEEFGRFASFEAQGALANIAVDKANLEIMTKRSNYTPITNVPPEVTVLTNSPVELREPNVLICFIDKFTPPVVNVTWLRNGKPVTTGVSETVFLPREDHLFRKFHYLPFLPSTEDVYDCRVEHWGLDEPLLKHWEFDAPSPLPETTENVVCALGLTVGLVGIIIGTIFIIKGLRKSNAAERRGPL
Experiment: biochemical
Assay type: binding
Conditions: competitive inhibition of radiolabeled standard peptide; '-' distinct from ND; read-out: Binding Affinity (nM) DRB1*1302
Entry rule: numbers only, all in nM.

// below: answered compounds
{"COMPOUND": "CC[C@H](C)[C@H](NC(=O)[C@H](CC(C)C)NC(=O)[C@H](CCCNC(=N)N)NC(=O)CNC(=O)[C@@H](N)CC(N)=O)C(=O)N[C@H](C(=O)N[C@@H](C)C(=O)N[C@@H](CC(N)=O)C(=O)N1CCC[C@H]1C(=O)N[C@H](C(=O)N[C@H](C(=O)N[C@H](C(=O)N[C@@H](CCCCN)C(=O)N[C@@H](CCCCN)C(=O)N[C@@H](CCC(=O)O)C(=O)O)[C@@H](C)O)C(C)C)C(C)C)[C@@H](C)O [Envelope 346-360]", "IC50, nM": 15}
{"COMPOUND": "CC(C)C[C@H](NC(=O)[C@H](CCCNC(=N)N)NC(=O)[C@H](Cc1c[nH]cn1)NC(=O)[C@H](CC(=O)O)NC(=O)[C@H](CS)NC(=O)[C@H](CC(C)C)NC(=O)[C@H](CCC(N)=O)NC(=O)[C@@H](NC(=O)[C@H](Cc1ccc(O)cc1)NC(=O)[C@@H](NC(=O)[C@H](CCC(=O)O)NC(=O)[C@H](CCCNC(=N)N)NC(=O)[C@H](CC(C)C)NC(=O)[C@H](CCCCN)NC(=O)[C@@H](N)CC(C)C)C(C)C)[C@@H](C)O)C(=O)O [NS1 169-183]", "IC50, nM": 9960}

// returns reported IC50 for input CSCC[C@H](NC(=O)[C@H](CC(C)C)NC(=O)[C@H](CCCNC(=N)N)NC(=O)[C@H](Cc1c[nH]cn1)NC(=O)[C@H](CC(=O)O)NC(=O)[C@H](CS)NC(=O)[C@H](CC(C)C)NC(=O)[C@H](CCC(N)=O)NC(=O)[C@@H](NC(=O)[C@H](Cc1ccc(O)cc1)NC(=O)[C@@H](NC(=O)[C@@H](N)CCC(=O)O)C(C)C)[C@@H](C)O)C(=O)N[C@@H](CO)C(=O)N[C@@H](C)C(=O)N[C@@H](C)C(=O)O [NS1 173-187]
4600

====

Target: DRB5*0101 (Homo sapiens, UniProt P01903+Q30154)
Assay: biochemical
Quick reference for pIC50 among some compounds
Formally, pIC50 is defined as -log10 of the concentration c, with c in mol/L.

{"CHEMICAL_SMILES": "CSCC[C@H](NC(=O)[C@H](C)NC(=O)[C@H](CCSC)NC(=O)[C@H](CCC(N)=O)NC(=O)[C@@H](NC(=O)[C@@H](NC(=O)[C@@H](N)CCSC)C(C)C)[C@@H](C)O)C(=O)N[C@H](C(=O)N[C@@H](CC(=O)O)C(=O)N[C@H](C(=O)N[C@H](C(=O)N1CCC[C@H]1C(=O)N[C@@H](Cc1ccccc1)C(=O)NCC(=O)N[C@@H](CCC(N)=O)C(=O)N[C@@H](CCC(N)=O)C(=O)N[C@@H](CCCNC(=N)N)C(=O)O)[C@@H](C)O)[C@@H](C)O)[C@@H](C)O", "pIC50": 4.98}
{"CHEMICAL_SMILES": "CC(C)C[C@H](NC(=O)CNC(=O)[C@H](CCC(=O)O)NC(=O)CNC(=O)[C@H](CCC(=O)O)NC(=O)[C@@H](NC(=O)CNC(=O)[C@H](CO)NC(=O)[C@H](Cc1ccc(O)cc1)NC(=O)[C@H](CO)NC(=O)[C@H](CC(N)=O)NC(=O)[C@H](CCC(=O)O)NC(=O)[C@H](CCCNC(=N)N)NC(=O)[C@H](CO)NC(=O)[C@H](Cc1ccccc1)NC(=O)[C@H](Cc1c[nH]c2ccccc12)NC(=O)[C@@H](N)Cc1c[nH]cn1)C(C)C)C(=O)O", "pIC50": 6.14}
{"CHEMICAL_SMILES": "CC[C@H](C)[C@H](NC(=O)[C@H](CC(C)C)NC(=O)[C@H](CCC(=O)O)NC(=O)[C@@H](N)Cc1c[nH]cn1)C(=O)N[C@@H](CCSC)C(=O)N[C@@H](CCCCN)C(=O)N[C@@H](CC(=O)O)C(=O)NCC(=O)N[C@@H](CCCNC(=N)N)C(=O)N[C@@H](CCCCN)C(=O)N[C@@H](CC(C)C)C(=O)N[C@H](C(=O)N[C@H](C(=O)N1CCC[C@H]1C(=O)N[C@@H](CS)C(=O)N[C@@H](CCCNC(=N)N)C(=O)O)C(C)C)C(C)C", "pIC50": 6.61}
{"CHEMICAL_SMILES": "CSCC[C@H](NC(=O)[C@H](CCSC)NC(=O)[C@H](CC(N)=O)NC(=O)[C@H](Cc1ccc(O)cc1)NC(=O)[C@@H](NC(=O)[C@H](CS)NC(=O)[C@H](CO)NC(=O)CN)C(C)C)C(=O)NCC(=O)N[C@@H](CCCCN)C(=O)N[C@@H](CCCNC(=N)N)C(=O)N[C@@H](CCC(=O)O)C(=O)N[C@@H](CCCCN)C(=O)N[C@@H](CCCCN)C(=O)N[C@@H](CC(C)C)C(=O)NCC(=O)N[C@@H](CCC(=O)O)C(=O)O", "pIC50": 7.60}
{"CHEMICAL_SMILES": "CC[C@H](C)[C@H](NC(=O)[C@H](CCSC)NC(=O)[C@H](CC(=O)O)NC(=O)[C@H](CO)NC(=O)[C@H](CCC(=O)O)NC(=O)[C@H](CC(C)C)NC(=O)[C@@H](NC(=O)CNC(=O)[C@H](CC(N)=O)NC(=O)[C@@H](N)CO)C(C)C)C(=O)N[C@H](C(=O)N1CCC[C@H]1C(=O)N[C@@H](CCCCN)C(=O)N[C@@H](CO)C(=O)N[C@@H](CC(C)C)C(=O)O)[C@@H](C)CC", "pIC50": 5.39}
{"CHEMICAL_SMILES": "CC[C@H](C)[C@H](NC(=O)[C@@H](NC(=O)[C@H](CCCNC(=N)N)NC(=O)[C@H](CC(=O)O)NC(=O)[C@H](C)NC(=O)[C@H](CCCCN)NC(=O)[C@H](Cc1ccccc1)NC(=O)[C@H](CC(N)=O)NC(=O)[C@H](C)NC(=O)CNC(=O)[C@H](CCSC)NC(=O)[C@@H](N)CCC(=O)O)C(C)C)C(=O)N[C@@H](CC(=O)O)C(=O)N1CCC[C@H]1C(=O)N[C@@H](CCCNC(=N)N)C(=O)O", "pIC50": 5.92}
{"CHEMICAL_SMILES": "CC[C@H](C)[C@H](NC(=O)[C@@H](N)CCCCN)C(=O)N1CCC[C@H]1C(=O)NCC(=O)NCC(=O)N[C@@H](C)C(=O)N[C@@H](CCSC)C(=O)N[C@@H](Cc1ccc(O)cc1)C(=O)N[C@@H](C)C(=O)N[C@@H](CC(=O)O)C(=O)N[C@@H](CC(=O)O)C(=O)N[C@H](C(=O)N[C@@H](C)C(=O)NCC(=O)N[C@@H](Cc1c[nH]c2ccccc12)C(=O)N[C@@H](CC(=O)O)C(=O)N[C@H](C(=O)O)[C@@H](C)O)[C@@H](C)O", "pIC50": 5.38}
{"CHEMICAL_SMILES": "CC[C@H](C)[C@H](NC(=O)[C@H](CCCCN)NC(=O)CNC(=O)[C@H](CCC(=O)O)NC(=O)[C@@H](NC(=O)[C@H](CS)NC(=O)[C@H](CC(C)C)NC(=O)[C@H](CCCCN)NC(=O)[C@H](CCCNC(=N)N)NC(=O)[C@H](CC(C)C)NC(=O)[C@@H](NC(=O)[C@H](C)NC(=O)[C@H](CC(C)C)NC(=O)[C@H](CCC(N)=O)NC(=O)[C@@H](N)[C@@H](C)O)[C@@H](C)O)[C@@H](C)CC)C(=O)O", "pIC50": 5.73}

Now for a further compound.
I'd like to know its pIC50. The compound in question is CSCC[C@H](NC(=O)[C@@H](NC(=O)[C@H](CCC(N)=O)NC(=O)[C@H](Cc1ccccc1)NC(=O)[C@H](CC(N)=O)NC(=O)[C@H](CCCCN)NC(=O)[C@@H]1CCCN1C(=O)[C@H](CC(N)=O)NC(=O)[C@H](CCCCN)NC(=O)CNC(=O)[C@@H]1CCCN1C(=O)[C@@H](N)CCC(=O)O)[C@@H](C)O)C(=O)N1CCC[C@H]1C(=O)NCC(=O)N[C@H](C(=O)O)[C@@H](C)O
5.97
